Assay: SAD study in healthy volunteers: PK in plasma, whole blood, red blood cells
Assay type: in vivo, human
Conditions: human, plasma, po, 1400 mg, HV single oral 1400 mg (Cohort 7); plasma; geometric mean; read-out: AUClast
METRIC: AUC(0-t) (µg·h/mL)
Give bare numbers, in µg·h/mL.

Request the reported AUC(0-t) associated with `O=Cc1c(O)cccc1OC[C@@H]1COCCN1C(=O)c1cccnc1CCO` 1030

---

Test: SAD study in healthy volunteers: PK in plasma, whole blood, red blood cells
Format: in vivo, human
Conditions: human; HV single oral 50 mg (Cohort 1); plasma; median
METRIC: Tmax

Request the reported Tmax associated with `O=Cc1c(O)cccc1OC[C@@H]1COCCN1C(=O)c1cccnc1CCO` 45 min

---

Experiment: Single 100 mg dose PK in SCD subjects
Type: in vivo, human
Details: human; SCD single 100 mg; whole blood; mean; read-out: t1/2 (converted)
METRIC: half-life (h)
One number for each entry, in h.

Request the reported half-life associated with `O=Cc1c(O)cccc1OC[C@@H]1COCCN1C(=O)c1cccnc1CCO` 235
